Where these numbers come from: patent US20030148956A1

// values below are reported CRF1R EC50
biological target: corticotropin releasing factor 1 receptor; test: cell-based or functional assay
Ends that are not written are not given here.
reported-endpoint: CRF1R EC50 (µM)

> print(dat)
                                     binder  reading
1  NDDPPISIDLPLILLRNMIEMARIENEREQAGLNAKYLAEV-NH2 [SEQ ID NO 269]        1
2  IVLSLDVPIGLLQILLEQARARAAREQATTNARILARVM-NH2 [SEQ ID NO 356]        1
3  Ac-DNPSLSIDLPLLLLRTLLELEKTQSQRERAEQNAIIFASV-NH2 [SEQ ID NO 347]        1
4  ZGPPISIDVPYHLLRKVIEIEKQEKEKQQAANNARLLDTI (C-terminal amide) [SEQ ID NO 376]        1
5  ZGPPISIDLPLQLLEKMIEIEKQEKEKQQATTNARLLDRV (C-terminal amide) [SEQ ID NO 247]        1
6  ZGPPISIDLPHQLLRKMIEIEKQEKEKQQAANNRLLLDTI (C-terminal amide) [SEQ ID NO 212]    0.445
